MEASUREMENT_PROTOCOL: Aqueous solubility at pH 2.0
Format: physicochemical
REPORTED_ENDPOINT: solubility (µg/mL)
Answers are plain numbers, in µg/mL.

query: Consider the compound O=C(NCc1ccc(N2[C@@H]3CCC[C@H]2CC3)c(C(F)(F)F)c1)Nc1cccc2[nH]ncc12 . State its measured solubility.
result: 14

====

TARGET_OF_ASSAY: Transient receptor potential cation channel subfamily V member 1 (Homo sapiens, UniProt Q8NER1)
Sequence (Q8NER1 whole entry): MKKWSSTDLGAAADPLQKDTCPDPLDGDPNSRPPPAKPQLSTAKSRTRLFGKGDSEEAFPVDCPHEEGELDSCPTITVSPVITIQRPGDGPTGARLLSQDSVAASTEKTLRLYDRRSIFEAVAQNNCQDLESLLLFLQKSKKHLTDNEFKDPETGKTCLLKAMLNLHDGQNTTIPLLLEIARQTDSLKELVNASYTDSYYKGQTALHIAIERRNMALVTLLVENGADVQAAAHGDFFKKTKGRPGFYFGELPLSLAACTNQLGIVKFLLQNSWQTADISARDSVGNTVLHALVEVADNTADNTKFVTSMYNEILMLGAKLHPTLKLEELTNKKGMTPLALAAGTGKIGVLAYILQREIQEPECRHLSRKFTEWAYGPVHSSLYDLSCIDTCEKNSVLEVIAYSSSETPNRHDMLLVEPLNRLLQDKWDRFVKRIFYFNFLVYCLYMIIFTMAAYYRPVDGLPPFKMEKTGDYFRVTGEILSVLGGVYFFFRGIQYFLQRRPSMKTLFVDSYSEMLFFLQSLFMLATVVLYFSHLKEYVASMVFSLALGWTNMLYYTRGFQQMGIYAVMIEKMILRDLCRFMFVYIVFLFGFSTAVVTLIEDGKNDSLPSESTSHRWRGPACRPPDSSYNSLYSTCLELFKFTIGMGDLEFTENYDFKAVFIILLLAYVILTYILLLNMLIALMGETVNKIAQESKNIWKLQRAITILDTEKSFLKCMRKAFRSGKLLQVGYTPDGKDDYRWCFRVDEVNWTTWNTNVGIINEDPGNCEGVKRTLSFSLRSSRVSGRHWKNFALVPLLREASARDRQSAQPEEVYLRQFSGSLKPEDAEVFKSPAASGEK
MEASUREMENT_PROTOCOL: Antagonist activity at human TRPV1 receptor by calcium influx assay
Assay type: functional
Give measured log10 of IC50 for each item. Keep answers brief.
Friendly reminder: values = log10 of IC50, unit µM.

Use these answered entries as a reference point.
INSERT INTO measurements (molecular_string, reported_endpoint, assay_result) VALUES
  ('O=C(NCc1ccc(N2[C@@H]3CCC[C@H]2CC3)c(Cl)c1)Nc1cccc2[nH]ncc12', 'log10 of IC50', -1.69),
  ('O=C(NCc1ccc(N2[C@@H]3CCC[C@H]2CC3)cc1C(F)(F)F)Nc1cccc2[nH]ncc12', 'log10 of IC50', -1.26),
  ('O=C(NCc1cc(F)c(N2[C@@H]3CC[C@H]2CC2(C3)OCCO2)cc1F)Nc1cccc2[nH]ncc12', 'log10 of IC50', -1.09),
  ('CC(C)c1cc(N2[C@@H]3CCC[C@H]2CC3)ccc1CNC(=O)Nc1cccc2[nH]ncc12', 'log10 of IC50', -1.45),
  ('O=C(NCc1ccc(N2[C@@H]3CCC[C@H]2CC3)c(C(F)(F)F)c1)Nc1cccc2[nH]ncc12', 'log10 of IC50', -1.57);

// input: 5 compounds below; output: log10 of IC50 for each
1. O=C1C[C@H]2CC[C@@H](C1)N2c1cc(F)c(CNC(=O)Nc2cccc3[nH]ncc23)cc1F
2. O=C(NCc1ccc(N2CCOCC2)cc1)Nc1cccc2cnccc12
3. Cc1cc(CNC(=O)Nc2cccc3[nH]ncc23)ccc1N1[C@@H]2CCC[C@H]1CC2
4. O=C(NCc1ccc(N2CCCCCC2)c(F)c1)Nc1cccc2cnccc12
5. CN(C)c1ccc(CNC(=O)Nc2cccc3cnccc23)cc1

result:
1. -0.80
2. -1.04
3. -1.70
4. -2.55
5. -0.80

FYI, the data here is from ChEMBL document CHEMBL1145452.
